tested on: RARb:RXRa (NR concentration 270 nM, RXRa partner concentration 90 nM); assay: PBM binding z-score (relative to random genomic background probes); higher = stronger binding; sequences stand for … in GC…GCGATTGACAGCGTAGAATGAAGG
Would you please tag the item YES when its PBM binding z-score is 2 or above, and NO when it is below?

Ask: Has `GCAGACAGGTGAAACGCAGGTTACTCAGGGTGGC` a recorded PBM binding z-score greater than or equal to 2?
Reply: NO

Ask: Has `ATCGGAAGGTCGAAGGTGAGTATACCCACCCGAA` a recorded PBM binding z-score greater than or equal to 2?
Reply: YES

Ask: Has `GCGACTGGGGCAAAGCAGGTTACCCTAAGGTTGG` a recorded PBM binding z-score greater than or equal to 2?
Reply: NO

Ask: Has `CCTTACGGGTCACTGACAGGTTATTGCATTTGGA` a recorded PBM binding z-score greater than or equal to 2?
Reply: YES

Ask: Has `ATACCACGGTGATCGTGAGGTCGTTGATACTAAC` a recorded PBM binding z-score greater than or equal to 2?
Reply: NO

Ask: Has `CTACCAAGGTGAACGAGGTCGTTGATTACTATTC` a recorded PBM binding z-score greater than or equal to 2?
Reply: YES

Ask: Has `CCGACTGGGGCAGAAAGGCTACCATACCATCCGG` a recorded PBM binding z-score greater than or equal to 2?
Reply: NO

Ask: Has `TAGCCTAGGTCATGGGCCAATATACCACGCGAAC` a recorded PBM binding z-score greater than or equal to 2?
Reply: YES

Ask: Has `TCTGATAGGTCAACGATGGTCAGCTAATCTGCTA` a recorded PBM binding z-score greater than or equal to 2?
Reply: YES

Ask: Has `CCTATTAGTTGACCATAAGGGCAACCGGAGCTCG` a recorded PBM binding z-score greater than or equal to 2?
Reply: NO

Ask: Has `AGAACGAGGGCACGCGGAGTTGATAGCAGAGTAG` a recorded PBM binding z-score greater than or equal to 2?
Reply: YES

Ask: Has `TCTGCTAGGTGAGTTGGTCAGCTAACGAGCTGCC` a recorded PBM binding z-score greater than or equal to 2?
Reply: NO

Ask: Has `CCGACTGGGGCAGAAAGGTTACTATACCATCCGG` a recorded PBM binding z-score greater than or equal to 2?
Reply: NO

Ask: Has `CCGACTGGGGCATAAGGTGACCATAAGCCAGCCC` a recorded PBM binding z-score greater than or equal to 2?
Reply: NO

Ask: Has `TTAGCAAGGTGAGCTGAGGTCGTTGATCCAACTC` a recorded PBM binding z-score greater than or equal to 2?
Reply: NO

Ask: Has `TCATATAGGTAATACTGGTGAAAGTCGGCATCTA` a recorded PBM binding z-score greater than or equal to 2?
Reply: NO

Ask: Has `ACAGACAGGTGAGTGAAGGTAACTCAACTGGACG` a recorded PBM binding z-score greater than or equal to 2?
Reply: NO

Ask: Has `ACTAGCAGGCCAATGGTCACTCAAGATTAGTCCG` a recorded PBM binding z-score greater than or equal to 2?
Reply: NO

Ask: Has `CGAACTAGGTTATCCAGGACAGTGAATACATTGA` a recorded PBM binding z-score greater than or equal to 2?
Reply: NO

Ask: Has `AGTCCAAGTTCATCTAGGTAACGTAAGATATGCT` a recorded PBM binding z-score greater than or equal to 2?
Reply: YES

Ask: Has `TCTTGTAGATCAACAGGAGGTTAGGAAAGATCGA` a recorded PBM binding z-score greater than or equal to 2?
Reply: NO

Ask: Has `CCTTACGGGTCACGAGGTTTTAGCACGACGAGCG` a recorded PBM binding z-score greater than or equal to 2?
Reply: YES

Ask: Has `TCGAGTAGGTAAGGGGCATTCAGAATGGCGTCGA` a recorded PBM binding z-score greater than or equal to 2?
Reply: NO

Ask: Has `TGAATGAGGCTATAAGATCAGGGAACGTTGCAAA` a recorded PBM binding z-score greater than or equal to 2?
Reply: NO

Ask: Has `CGTCCAAGGTTAGAGAGGTCAGTGAATGCCGAGT` a recorded PBM binding z-score greater than or equal to 2?
Reply: YES
